// data source = the RNAGym collection of RNA variant scans (doi:10.1073/pnas.2313332121)

B1: TPR 5TU (parent)
chain: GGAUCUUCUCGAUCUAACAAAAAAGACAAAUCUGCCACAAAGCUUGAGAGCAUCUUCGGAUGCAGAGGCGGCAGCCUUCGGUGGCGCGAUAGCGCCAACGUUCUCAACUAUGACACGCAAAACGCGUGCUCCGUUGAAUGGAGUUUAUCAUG

variants of: B1; assay: polymerase ribozyme fitness, log enrichment relative to wild type (log ratio); higher = more active; in vitro selection for triplet polymerase activity
This sample holds only a part of the variants without activity.
MEASURE NAME: polymerase ribozyme fitness (log ratio)

Solved cases (3 shown):
SEQUENCE CHANGE: G25U A49G G59U C99A
REPORTED RESULT: ≤ -4.2
--
SEQUENCE CHANGE: A19G C87G
REPORTED RESULT: ≤ -4.2
--
SEQUENCE CHANGE: A41U A49G A52C G84A C103G A115U
REPORTED RESULT: ≤ -4.2

The variant listed as A26C A29C G65A C87G A97G A142G shows polymerase ribozyme fitness (log ratio) equal to ≤ -4.2

The variant A16C A20U A28U C35A G50U G59C G84A C87G C96U C103A U148A showed polymerase ribozyme fitness (log ratio) equal to ≤ -4.2

Reported polymerase ribozyme fitness (log ratio) ( A40C G92A U109C G141U ) = ≤ -4.2

polymerase ribozyme fitness (log ratio) recorded for this variant, C10G C38U C87A C93G , is ≤ -4.2

Sure, the documented polymerase ribozyme fitness (log ratio) for A19G C72G A89G is ≤ -4.2

Measured polymerase ribozyme fitness (log ratio), C8A C43U G46A A73G C85U U134G U151A : ≤ -4.2

Lookup result for C54A G88C ; measured polymerase ribozyme fitness (log ratio): -3.99

Per the record, A16G A17G C18A G58C A60G C95A U144C A150C has polymerase ribozyme fitness (log ratio) of ≤ -4.2

Reported polymerase ribozyme fitness (log ratio) ( A3C C8U U61G G71C G80C C93A C125G U127C U145C G152U ) = ≤ -4.2

Just so you know, measured polymerase ribozyme fitness (log ratio) for A20C A47C came out at -0.462

Entry A52U A122G , polymerase ribozyme fitness (log ratio) reported as -3.43

Reported polymerase ribozyme fitness (log ratio) ( C99U G136U ) = -2.25

GET /value?item= A3C U6A &field=polymerase ribozyme fitness (log ratio) returns -0.461

Kindly note the recorded polymerase ribozyme fitness (log ratio) for A30U G42A U55G C69A G126U A142C , which is ≤ -4.2
